Each recorded value in this set is attributed to patent US20170137419A1.

biological target: hCB2 (Homo sapiens, UniProt P34972); assay: [35S]-GTPγS functional activity (hCB2); type: biochemical
Sequence (P34972 whole entry): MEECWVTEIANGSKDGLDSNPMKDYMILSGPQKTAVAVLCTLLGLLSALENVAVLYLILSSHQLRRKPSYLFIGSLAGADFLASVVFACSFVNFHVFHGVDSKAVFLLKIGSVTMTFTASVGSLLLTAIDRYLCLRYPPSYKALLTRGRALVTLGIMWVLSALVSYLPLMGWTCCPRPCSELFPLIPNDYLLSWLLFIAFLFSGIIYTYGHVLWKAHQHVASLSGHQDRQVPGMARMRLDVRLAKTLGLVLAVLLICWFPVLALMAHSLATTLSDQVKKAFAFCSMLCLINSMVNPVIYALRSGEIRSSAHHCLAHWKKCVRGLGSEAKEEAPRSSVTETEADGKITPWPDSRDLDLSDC
Result Type: Emax (%)
Please reply with the bare figure in % and do not write the unit itself.

Previously resolved entries follow.
Compound: CCCCCn1cc2c(=O)n(C3CCCCC3)nc-2c2ccccc21 [Compound 16]
Emax (%): 160
--
Compound: CCCCCn1cc2c(=O)n(CC34CC5CC(CC(C5)C3)C4)nc-2c2ccccc21 [Compound 26]
Emax (%): 163
--
Compound: CCCCCn1cc2c(=O)n(CC3CCCCC3)nc-2c2ccccc21 [Compound 24]
Emax (%): 149

Which Emax reading was recorded for the compound CCCCCn1cc2c(=O)n(CCC3CCCCC3)nc-2c2ccccc21 [Compound 25] ?
141

====

target: UniProt:P34972; assay: Binding affinity hCB2, [3H]-CP-55,940 displacement; settings: Table 2; radioligand [3H]-CP-55,940 0.5 nM; read-out: Binding affinity hCB2 Ki
Some compounds, each annotated with its measured pKi.
pKi here is simply -log10 of the concentration when that concentration is written in mol/L.

Check out these entries, answers already filled in.
Structure Smiles String: CCCCCn1cc2c(=O)n(CCC3CCCCC3)nc-2c2ccccc21
Result Type: pKi
Test Value: 8.10
//
Structure Smiles String: CCCCCn1cc2c(=O)n(CC34CC5CC(CC(C5)C3)C4)nc-2c2ccccc21
Result Type: pKi
Test Value: 9.41
//
Structure Smiles String: CCCCCn1cc2c(=O)n(CCC34CC5CC(CC(C5)C3)C4)nc-2c2ccccc21
Result Type: pKi
Test Value: 7.58
//
Structure Smiles String: CCCCCn1nc2c3ccccc3n(CCCCC)cc-2c1=O
Result Type: pKi
Test Value: 8.37
//
Structure Smiles String: CCCCCn1cc2c(=O)n(CC3CCCCC3)nc-2c2ccccc21
Result Type: pKi
Test Value: 9.21

Entry under review: CCCCCCn1nc2c3ccccc3n(CCCCC)cc-2c1=O . Reported pKi?
8.11

How about CCCCCn1cc2c(=O)n(C3CCCCC3)nc-2c2ccccc21 ?
7.73

Can you handle CCCCCn1cc2c(=O)n(CC3CC3)nc-2c2ccccc21 next?
7.98

====

Attribute: Ki
biological target: UniProtKB P21554; assay: Binding affinity hCB1, [3H]-CP-55,940 displacement; settings: Table 3; radioligand [3H]-CP-55,940 0.5 nM; read-out: Binding affinity hCB1 Ki
Sequence (P21554 whole entry): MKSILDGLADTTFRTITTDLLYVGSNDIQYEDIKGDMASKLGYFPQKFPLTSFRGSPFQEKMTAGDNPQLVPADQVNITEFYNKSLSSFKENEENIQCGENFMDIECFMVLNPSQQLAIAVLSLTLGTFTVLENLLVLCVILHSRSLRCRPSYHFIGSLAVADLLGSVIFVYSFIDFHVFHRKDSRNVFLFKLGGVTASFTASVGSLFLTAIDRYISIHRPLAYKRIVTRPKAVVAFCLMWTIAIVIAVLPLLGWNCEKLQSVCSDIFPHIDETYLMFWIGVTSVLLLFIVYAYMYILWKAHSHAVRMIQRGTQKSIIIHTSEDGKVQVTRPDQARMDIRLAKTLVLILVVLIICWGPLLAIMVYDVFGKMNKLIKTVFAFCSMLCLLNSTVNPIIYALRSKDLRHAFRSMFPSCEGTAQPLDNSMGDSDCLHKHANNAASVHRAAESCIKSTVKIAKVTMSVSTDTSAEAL

Sample records with Ki:
Structure Smiles String: CCCCn1cc2c(=O)n(CC3CCCCC3)nc-2c2ccccc21
Study System: UniProtKB P21554
Ki: > 10 µM

Structure Smiles String: O=c1c2cn(CCCC(F)(F)F)c3ccccc3c-2nn1CC1CCCCC1
Study System: UniProtKB P21554
Ki: 1.68 µM

Could you now consider this next compound?
Query (compound): CCCCCCn1cc2c(=O)n(CC3CCCCC3)nc-2c2ccccc21 ; field requested: Ki
> 10 µM

====

biological target: hCB2 (Homo sapiens); test: Binding affinity hCB2, [3H]-CP-55,940 displacement
Result Type: Ki (nM)
Give your result in nM as a bare value.

Field: example entries. Status: answers known.
Structure Smiles String: O=c1c2cn(CC3CCOCC3)c3ccccc3c-2nn1CC1CCCCC1
Result Type: Ki
Result Units: nM
Test Value: 5.32
//
Structure Smiles String: CCCCCCn1cc2c(=O)n(CC3CCCCC3)nc-2c2ccccc21
Result Type: Ki
Result Units: nM
Test Value: 31.1

Recorded Ki of O=c1c2cn(CCCC(F)(F)F)c3ccccc3c-2nn1CC1CCCCC1 , please.
6.17

What about CCCCn1cc2c(=O)n(CC3CCCCC3)nc-2c2ccccc21 ?
14.8
